Cited source: patent US11021444B2

Entries and their pEC50
System: Respiratory Syncytial Virus (RSV) long strain
Assay: microbe, parasite or virus in culture
Format: cell-based
Details: human respiratory syncytial virus, HEp-2, 120 h, read-out: 50% effective concentration (EC50), HEp-2 cells infected with RSV long strain, 5 days, CCK-8 readout; Tables A and B list compounds by EC50 band
pEC50: −log10 of the molar value.

Previously resolved entries follow.
COc1ccc(C(O)(CNC(=O)c2cc(OC)c3ncccc3c2)C(F)(F)F)nc1-c1ccc(F)c(Cl)c1 (stereo not drawn) : > 6.00
COc1cc(C(=O)NCC(O)(c2cc(C(C)(C)NC3COC3)cc(-c3ccc(F)c(Cl)c3)n2)C(F)(F)F)ccc1OC1CC1 (stereo not drawn) : > 6.00
COc1cc(C(=O)NCC(O)(c2cc3c(c(-c4ccc(F)c(Cl)c4)n2)OCC3(C)N[S+]([O-])C(C)(C)C)C(F)(F)F)ccc1OC1CC1 (stereo not drawn) : > 6.00
COc1ccc(C(O)(CNC(=O)c2ccc(OC3CCNC3=O)cc2)C(F)(F)F)nc1-c1ccc(F)c(Cl)c1 (stereo not drawn) : > 6.00
COc1cc(C(=O)NC[C@](O)(c2cc(C(C)(C)N)cc(-c3ccc(F)cc3)n2)C(F)(F)F)ccc1OCC(N)=O : > 6.00
CC(C)(N)c1cc(-c2ccc(F)c(Cl)c2)nc(C(O)(CNC(=O)c2ccc(OC3CCNC3=O)c(Cl)c2)C(F)(F)F)c1 (stereo not drawn) : > 6.00

The compound listed as COc1cc(C(=O)NCC(O)(c2ccc(OC)c(-c3ccc(F)c(Cl)c3)n2)C(C)(C)C)ccc1OCCF (stereo not drawn) shows pEC50 equal to 4.30 to 6.00

The compound listed as CC#CC(O)(CNC(=O)c1ccc(OCCF)c(OC)c1)c1ccc(OC)c(-c2ccc(F)c(Cl)c2)n1 (stereo not drawn) shows pEC50 equal to > 6.00

The compound listed as COc1cc(C(=O)NCC(O)(c2ccc(OC)c(-c3ccc(F)c(Cl)c3)n2)C(F)(F)F)ccc1OC1CCC1 (stereo not drawn) shows pEC50 equal to > 6.00

The compound listed as COc1cc(C(=O)NC[C@](O)(c2cc3c(c(-c4ccc(F)cc4)n2)OC[C@]3(C)N)C(F)(F)F)ccc1OC[C@@H](C)O shows pEC50 equal to > 6.00

The compound listed as COc1cc(C(=O)NCC(O)(c2cc(CO)cc(-c3ccc(F)c(Cl)c3)n2)C(F)(F)F)ccc1OC1CC1 (stereo not drawn) shows pEC50 equal to > 6.00
